target under test: human KDR enzyme (Homo sapiens, UniProt P35968)
Construct: The cytoplasmic domain of the human KDR enzyme was cloned in GST fusion form; GST; made in house; host or cells: SF21 insect cells (baculovirus, pFastBac)
Sequence (P35968 786-1356 limits assumed): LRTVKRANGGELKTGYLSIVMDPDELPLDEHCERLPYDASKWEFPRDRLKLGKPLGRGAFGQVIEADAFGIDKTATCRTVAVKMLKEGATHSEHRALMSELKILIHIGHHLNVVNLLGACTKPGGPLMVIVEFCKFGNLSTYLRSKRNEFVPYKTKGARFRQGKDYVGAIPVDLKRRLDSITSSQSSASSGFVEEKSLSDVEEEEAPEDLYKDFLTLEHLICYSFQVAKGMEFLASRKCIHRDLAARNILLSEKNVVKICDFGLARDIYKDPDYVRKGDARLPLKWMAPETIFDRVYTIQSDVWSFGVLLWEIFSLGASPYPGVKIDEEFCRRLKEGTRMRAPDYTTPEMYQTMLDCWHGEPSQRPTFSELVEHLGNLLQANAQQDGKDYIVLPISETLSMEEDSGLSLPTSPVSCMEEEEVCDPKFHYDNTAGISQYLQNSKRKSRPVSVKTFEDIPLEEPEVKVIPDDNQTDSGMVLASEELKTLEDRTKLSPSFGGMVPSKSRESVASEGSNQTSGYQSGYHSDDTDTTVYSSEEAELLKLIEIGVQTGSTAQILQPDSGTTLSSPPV
assay overview: KDR kinase inhibition: phosphorylation of PLCγ SH2-SH3 substrate by KDR enzyme, 33P-ATP scintillation plate
Assay type: biochemical
run conditions: read-out: KDR % Inhib. 10 μM
For each record, write down the corresponding inhibition at 10 µM.
Give just the numeric value; % need not be written.

Incoming: Sample `CCN1CCc2c(n[nH]c2-c2nc3cc(C)c(C)cc3[nH]2)C1` — what was its inhibition at 10 µM?
Outgoing: -5.75

Incoming: Also, `Cc1cc2nc(-c3[nH]nc4c3CCN(Cc3ccc(Cl)cc3)C4)[nH]c2cc1C` please.
Outgoing: 69

Incoming: Follow-up entry: `Cc1cc2nc(-c3[nH]nc4c3CCN(Cc3cccc(Cl)c3Cl)C4)[nH]c2cc1C`
Outgoing: 79.5

Incoming: Another compound: `Cc1cc2nc(-c3[nH]nc4c3CCN(Cc3cccc(Cl)c3)C4)[nH]c2cc1C`
Outgoing: 88.8

Incoming: Same question for `Cc1cc2nc(-c3[nH]nc4c3CCN(C(=O)Nc3cccc(Cl)c3)C4)[nH]c2cc1C` please.
Outgoing: 12.8

Incoming: Cool, now `Cc1cc2nc(-c3[nH]nc4c3CCN(C(=O)C(C)(C)C)C4)[nH]c2cc1C`
Outgoing: 11.2

Incoming: Then this compound: `Cc1cc2nc(-c3[nH]nc4c3CCN(Cc3ccco3)C4)[nH]c2cc1C`
Outgoing: 70.3

Incoming: Similarly, `CC(=O)N1CCc2c(n[nH]c2-c2nc3cc(C)c(C)cc3[nH]2)C1` ?
Outgoing: 41.1

Incoming: Lookup `Cc1cc2nc(-c3[nH]nc4c3CCN(Cc3ccccc3)C4)[nH]c2cc1C`
Outgoing: 85.5

Incoming: And what about the compound `Cc1cc2nc(-c3[nH]nc4c3CCN(C(=O)NCc3ccccc3)C4)[nH]c2cc1C` ?
Outgoing: 33.5

Reference for the values: patent US7435820B2
